Assay: Competitive antagonist at angiotensin 2 receptor in rabbit aorta assessed as rightward shift in angiotensin-2 dose response curve for myotropic activity
Assay type: tissue-based, Oryctolagus cuniculus
Non-standard residues stand in square brackets, D forms with d. Residues, ends and D or L forms follow the SMILES beside them. Sar = CNCC(=O)O
Label MET when pA2 is at or above 9; otherwise label NOT MET.

Answer whether pA2 of CNCC(=O)N[C@@H](CCCNC(=N)N)C(=O)N[C@H](C(=O)N[C@@H](Cc1ccc(O)cc1)C(=O)N[C@H](C(=O)N[C@@H](Cc1cnc[nH]1)C(=O)N1CCC[C@H]1C(=O)N[C@H](C(=O)O)[C@@H](C)OC)[C@@H](C)OC)C(C)C is greater than or equal to 9.
MET

Consider next the compound CC[C@H](C)[C@H](NC(=O)[C@H](Cc1ccc(O)cc1)NC(=O)[C@@H](NC(=O)[C@H](CCCNC(=N)N)NC(=O)C(C)(C)N)C(C)C)C(=O)N[C@@H](Cc1cnc[nH]1)C(=O)N1CCC[C@H]1C(=O)NC(C)(C)C(=O)O in the same way.
NOT MET

Now give it for CC[C@H](C)[C@H](NC(=O)[C@H](Cc1ccc(O)cc1)NC(=O)[C@@H](NC(=O)[C@H](CCCN=C(N)N)NC(=O)CNC)C(C)C)C(=O)N[C@@H](Cc1c[nH]cn1)C(=O)N1CCC[C@H]1C(=O)N[C@@H](C)C(=O)O too.
NOT MET

Next up: CC[C@H](C)[C@H](NC(=O)[C@@H]1CCCN1C(=O)[C@H](Cc1c[nH]cn1)NC(=O)[C@@H](NC(=O)[C@H](Cc1ccc(O)cc1)NC(=O)[C@@H](NC(=O)[C@H](CCCN=C(N)N)NC(=O)CNC)C(C)C)[C@@H](C)OC)C(=O)O (H-[Sar]RVYT(Me)HPI-OH)
MET

# iterate: CC[C@H](C)[C@H](NC(=O)[C@H](Cc1ccc(O)cc1)NC(=O)[C@@H](NC(=O)[C@H](CCCNC(=N)N)NC(=O)CNC)C(C)C)C(=O)N[C@@H](Cc1cnc[nH]1)C(=O)N1CCC[C@H]1C(=O)NC(C)(C)C(=O)O
NOT MET

====

Experiment: Retardation factor of the compound using n-BuOH-AcOH-water-pyridine at ratio of 30:6:24:20 as solvent system by thin layer chromatography
Format: physicochemical
Settings: buffer
Non-standard residues stand in square brackets, D forms with d. Residues, ends and D or L forms follow the SMILES beside them. Sar = CNCC(=O)O
Assignment: determine reported Rf for the given compounds.

Name the reported Rf value associated with the compound CC[C@H](C)[C@H](NC(=O)[C@H](Cc1ccc(O)cc1)NC(=O)[C@@H](NC(=O)CN(C)C(=O)CNC)C(C)C)C(=O)N[C@@H](Cc1c[nH]cn1)C(=O)N1CCC[C@H]1C(=O)N[C@H](C(=O)O)[C@@H](C)O (H-[Sar][Sar]VYIHPT-OH)
0.63

Now give it for CC[C@H](C)[C@H](NC(=O)[C@H](Cc1ccc(O)cc1)NC(=O)[C@@H](NC(=O)[C@H](CCCNC(=N)N)NC(=O)CNC)C(C)C)C(=O)N[C@@H](Cc1cnc[nH]1)C(=O)N1CCC[C@H]1C(=O)NC(C)(C)C(=O)O too.
0.62

Next compound: CNCC(=O)N[C@@H](CCCNC(=N)N)C(=O)N[C@H](C(=O)N[C@@H](Cc1ccc(O)cc1)C(=O)N[C@H](C(=O)N[C@@H](Cc1cnc[nH]1)C(=O)N1CCC[C@H]1C(=O)N[C@H](C(=O)O)[C@@H](C)OC)[C@@H](C)OC)C(C)C
0.47

Can you handle CC[C@H](C)[C@H](NC(=O)[C@H](Cc1ccc(O)cc1)NC(=O)[C@@H](NC(=O)[C@H](CCCNC(=N)N)NC(=O)C(C)(C)N)C(C)C)C(=O)N[C@@H](Cc1cnc[nH]1)C(=O)N1CCC[C@H]1C(=O)NC(C)(C)C(=O)O next?
0.64

# credit: ChEMBL document CHEMBL3244213
